The measurements presented in this section are drawn from patent US20040063651A1.

// pIC50 collected for HCV RNA polymerase (Hepatitis C virus genotype 1b)
By convention, pIC50 is the negative base-10 log of a molar concentration.

# MOLECULE, pIC50
rows = [
    ("O=c1ccn([C@@H]2O[C@H](COP(=O)(O)OP(=O)(O)OP(=O)(O)O)[C@@H](F)[C@H]2O)c(=S)[nH]1 [Synthetic Example 19]", 5.52),
    ("O=c1[nH]c(=O)n([C@@H]2O[C@H](COP(=O)(O)OP(=O)(O)OP(=O)(O)O)[C@@H](F)[C@H]2O)cc1F [Synthetic Example 13]", 6.00),
    ("O=c1ccn([C@H]2O[C@@H](COP(=O)(O)OP(=O)(O)OP(=O)(O)O)[C@H](F)[C@@H]2O)c(=O)[nH]1 [Synthetic Example 21]", 5.52),
    ("O=c1ccn([C@@H]2O[C@H](COP(=O)(O)OP(=O)(O)OP(=O)(O)O)[C@@H](F)[C@H]2O)c(=O)[nH]1 [Synthetic Example 12]", 6.52),
]

Now for the molecule whose pIC50 we want.
## Task Reported pIC50, molecule O=c1[nH]c(=O)n([C@H]2O[C@@H](COP(=O)(O)OP(=O)(O)OP(=O)(O)O)[C@H](F)[C@@H]2O)cc1F [Synthetic Example 22] : ____
## Result 5.00
